System: OVCAR-5 ovarian
Experiment: NCI tumour cell line growth inhibition, 48 h
Entries and their TGI

COMPOUND	TGI
CSc1nc2sc3cc(Cl)ccc3n2c(=N)c1C#N	> 100 µM
COc1ccc(O)c(C=NCCCN=Cc2cc(OC)ccc2O)c1	> 100 µM
COC(=O)C1=C(CO)C2C=CC1C2 (stereo not given)	> 100 µM

Consider now this further compound.
Request: Name the recorded TGI for COc1ccc(-c2nc(-c3nc4ccc(OC)cc4[nH]3)cc3c2[nH]c2ccccc23)cc1 .
Response: > 100 µM

---

Test system: PC-3 prostate
Experiment: NCI tumour cell line growth inhibition, 48 h
In this section we review reported GI50 values for a set of molecules.

MOLECULE	GI50
COc1cc(C(=O)c2cc3c(cc2C)OCO3)cc(OC)c1OC	141 nM
COc1cc(-c2cc(-c3nc4ccc(Cl)cc4[nH]3)[nH]n2)cc(OC)c1OC	2470 nM
CCC(C)C(NC(=O)C1CCCN1C(=O)C(NC(=O)C(C)N)C(C)C)C(N)=O (stereo unspecified)	> 100000 nM

Request: Please give the measured GI50 for this molecule: COc1ccccc1CNCCCN1C(=O)c2ccc3c4c(ccc(c24)C1=O)C(=O)N(CCCNCCCN)C3=O
Response: 653 nM

Request: Try the molecule CCn1cnc2c(Nc3cccc(Cl)c3)nc(N[C@@H]3CCCC[C@@H]3N)nc21
Response: 1300 nM

Request: Further, for COc1cc(/C=C2\COc3ccc(O)c(O)c3C2=O)cc(OC)c1 ?
Response: 1610 nM

Request: Again, but for CCCCCCCC[N+](C)(CCCCCCCC)CCCCCCCC
Response: 240 nM

Request: What do you have for Cc1[nH]c(=O)[nH]c(=O)c1CO ?
Response: > 100000 nM

Request: Repeat for the following molecule: COc1ccc(NC(=O)c2sc3nc(C)c(C(O)c4ccccc4)cc3c2N)cc1 (stereo unspecified)
Response: 3310 nM

Request: Can you check COc1cc2nc(Nc3cccc(F)c3)nc(Nc3cc(C)[nH]n3)c2cc1OC next?
Response: 1680 nM

Request: Same lookup for CCOC(=O)c1sc(Nc2ccc(Cl)cc2)nc1C , please.
Response: 1370 nM

---

Test system: OVCAR-4 ovarian
Assay: NCI tumour cell line growth inhibition, 48 h
ASSAY_ENDPOINT: GI50

COMPOUND	TARGET_UNDER_TEST	REPORTED
COc1ccc(/C=C/c2n[nH]c3ccc(N4CCOC4=O)cc23)cc1	OVCAR-4 ovarian	5060 nM
COc1cc(-n2cc(-c3ccc(Cl)cc3)[nH]c2=O)cc(OC)c1OC	OVCAR-4 ovarian	25900 nM
COc1cc2nc(Nc3cccc(F)c3)nc(Nc3cc(C)[nH]n3)c2cc1OC	OVCAR-4 ovarian	1680 nM
COC(=O)C1=C(C(=O)OC)C23C=C(C)C1C2=C(C)C1(CC1)[C@@](C)(O)C3=O (stereo partly drawn)	OVCAR-4 ovarian	484 nM

Here is another compound to look at.
Request: Entry NCCC(O)(P(=O)(O)O)P(=O)(O)O : reported GI50 = ?
Response: > 100000 nM

---

Test system: HCT-116 colon
Assay: NCI tumour cell line growth inhibition, 48 h
Listing: TGI of selected molecules

The cases that follow already have their TGI on record.
MOLECULE	TGI
COc1ccc2c(c1)OC[C@@H]1c3cc4c(cc3O[C@H]21)OCO4	> 100 µM
CCOC(=O)NC(NC(C)CC)(C(F)(F)F)C(F)(F)F (centres undefined)	> 100 µM

Request: Please look up its TGI: Oc1ccc(Cn2c(-c3ccc(O)c(O)c3)nc3ccccc32)cc1O
Response: 16.3 µM

Request: Proceed to N#CCCN(c1ccc(-c2nnc(NC(=O)CNNC(=O)CC(=O)Nc3ccccc3)s2)cc1)S(=O)(=O)c1ccccc1
Response: > 100 µM

Request: Could you do the same for CCOC(=O)c1cn(Cc2ccccc2)c(=O)n1Cc1ccccc1 , please?
Response: > 100 µM

Request: What would you report for CN(CCCCN(C)CCc1ccc(Cl)c(Cl)c1)CCCCN1CCCC1 ?
Response: 2.93 µM

Data origin: PubChem BioAssay (NCI)
